QUANTITY_MEASURED: glass transition temperature (°C)

Example results:
COMPOUND: *c1ccc(Oc2ccc(-c3ccc(Oc4ccc(N5C(=O)c6ccc(Oc7c(C)cc(C(C)(C)c8cc(C)c(Oc9ccc%10c(c9)C(=O)N(*)C%10=O)c(C)c8)cc7C)cc6C5=O)cc4)cc3C)c(C)c2)cc1 (repeat unit)
RECORDED_RESULT: 257.00
--
COMPOUND: *CC(*)(C)C(=O)OCCCCCCCCCCOc1ccc(OC(=O)c2ccc(OC)c(Br)c2)cc1 (repeat unit)
RECORDED_RESULT: 29.00
--
COMPOUND: *c1ccc(Oc2ccc(-c3ccc(Oc4ccc(N5C(=O)c6ccc(Oc7ccccc7Oc7ccc8c(c7)C(=O)N(*)C8=O)cc6C5=O)cc4C(F)(F)F)cc3)cc2)c(C(F)(F)F)c1 (repeat unit)
RECORDED_RESULT: 208.00

1 = *c1cccc(C(=O)Nc2ccc(Oc3ccc(C(C)(C)c4ccc(Oc5ccc(NC(=O)c6cccc(N7C(=O)c8ccc(-c9ccc%10c(c9)C(=O)N(*)C%10=O)cc8C7=O)c6)cc5)cc4)cc3)cc2)c1 (repeat unit)
2 = *CC(C)COC(=O)c1ccc(C(=O)O*)cc1 (repeat unit)
*Q* For the pair 1 and 2 , which member has the lower glass transition temperature number? I would appreciate it if you answered with the label of your choice.
*A* 2
(2: 55.00 °C, 1: 257.00 °C)

###

QUANTITY_MEASURED: glass transition temperature (°C)

MOLECULE: *Oc1ccc(C(c2ccc(Oc3ccc(C(=O)Nc4ccc(-c5ccc(NC(=O)c6ccc(*)cc6)cc5C(F)(F)F)c(C(F)(F)F)c4)cc3)cc2)(C(F)(F)F)C(F)(F)F)cc1 (repeat unit)
QUANTITY_MEASURED: glass transition temperature
RECORDED_RESULT: 240.00
//
MOLECULE: *Nc1ccc(-c2ccc(NC(=O)c3cc(NC(=O)c4ccc(NC(=O)C(C)N5C(=O)c6ccccc6C5=O)cc4)cc(C(*)=O)c3)cc2)cc1 (repeat unit)
QUANTITY_MEASURED: glass transition temperature
RECORDED_RESULT: 202.00
//
MOLECULE: *CC(*)(C)C(=O)OC(C(F)(F)F)C(F)(F)F (repeat unit)
QUANTITY_MEASURED: glass transition temperature
RECORDED_RESULT: 75.00
//
MOLECULE: *c1ccc2oc(-c3ccc(-c4nc5cc(C(*)(c6ccccc6)C(F)(F)F)ccc5o4)cc3)nc2c1 (repeat unit)
QUANTITY_MEASURED: glass transition temperature
RECORDED_RESULT: 369.00
//
MOLECULE: *CC(COC(=O)O*)OCCCCCCOc1ccc(/C=C/c2ccc([N+](=O)[O-])cc2)cc1 (repeat unit)
QUANTITY_MEASURED: glass transition temperature
RECORDED_RESULT: 32.00

1 = *CCCCCCN1C(=O)C(=O)N(c2ccc(Oc3ccc(N4C(=O)C(=O)N(*)C4=O)cc3)cc2)C1=O (repeat unit)
2 = *c1ccc2c(c1)C(CCCCCC)(CCCCCC)c1cc(-c3cc(OCCCCCCCC)c(*)cc3OCCCCCCCC)ccc1-2 (repeat unit)
*Q* Compare 1 and 2 and name the one whose reported glass transition temperature is smaller. Identify your selection by its label.
*A* 2

###

QUANTITY_MEASURED: glass transition temperature (°C)

P = *c1ccc(C(c2ccc(OCCCC)cc2)c2ccc(N(*)c3ccc(C)cc3)cc2)cc1 (repeat unit)
Q = *c1ccc(-c2ccc(-c3cc(-c4ccccc4)c4cc(C5(c6ccc7nc(*)cc(-c8ccccc8)c7c6)c6ccccc6C(=O)c6ccccc65)ccc4n3)cc2)cc1 (repeat unit)
*Q* # min-compare on glass transition temperature between P and Q Answer by stating the label of the chosen item.
*A* P
